All figures here come from patent US10526316B2.

Observed pKd, system kinase enzymes (Homo sapiens).
Scale for pKd: -log10 of concentration given in mol/L; no unit attached.

Reference set (5 entries):
INSERT INTO results (molecule, value_reported) VALUES
  ('CC(Nc1cc(F)cc(F)c1)c1cc(C(=O)NC[C@H](C)O)cc2ncc(N3CCOCC3)nc12 (single isomer, unassigned) [Compound 246a]', 5.17),
  ('CC(Nc1ccc(F)c(F)c1)c1cc(C(=O)N(C)C2CCNC2)cc2ncc(N3CCOCC3)nc12 (stereo not shown) [Compound 322b]', 5.21),
  ('CC(Nc1ccc(F)c(F)c1)c1cc(C(=O)N[C@H]2CCNC2)cc2ncc(N3CCOCC3)nc12 (single isomer, unassigned) [Compound 374a]', 5.23),
  ('CN[C@H]1CCN(C(=O)c2cc(C(C)Nc3cc(F)c(F)c(F)c3)c3nc(N4CCOCC4)cnc3c2)C1 (single isomer, unassigned) [Compound 297a]', 4.82),
  ('CC(Oc1cccc(F)c1)c1cc(C(=O)N(C)C)cc2ncc(N3CCOCC3)nc12 (racemic) [Compound 339]', 5.03);

Please state recorded pKd (tested on kinase enzymes (Homo sapiens)) of CC(Nc1cc(F)cc(F)c1)c1cc(C(=O)O)cc2ncc(N3CCOCC3)nc12 (stereo not shown) [Compound 83a]
Sequence (P48736 whole entry): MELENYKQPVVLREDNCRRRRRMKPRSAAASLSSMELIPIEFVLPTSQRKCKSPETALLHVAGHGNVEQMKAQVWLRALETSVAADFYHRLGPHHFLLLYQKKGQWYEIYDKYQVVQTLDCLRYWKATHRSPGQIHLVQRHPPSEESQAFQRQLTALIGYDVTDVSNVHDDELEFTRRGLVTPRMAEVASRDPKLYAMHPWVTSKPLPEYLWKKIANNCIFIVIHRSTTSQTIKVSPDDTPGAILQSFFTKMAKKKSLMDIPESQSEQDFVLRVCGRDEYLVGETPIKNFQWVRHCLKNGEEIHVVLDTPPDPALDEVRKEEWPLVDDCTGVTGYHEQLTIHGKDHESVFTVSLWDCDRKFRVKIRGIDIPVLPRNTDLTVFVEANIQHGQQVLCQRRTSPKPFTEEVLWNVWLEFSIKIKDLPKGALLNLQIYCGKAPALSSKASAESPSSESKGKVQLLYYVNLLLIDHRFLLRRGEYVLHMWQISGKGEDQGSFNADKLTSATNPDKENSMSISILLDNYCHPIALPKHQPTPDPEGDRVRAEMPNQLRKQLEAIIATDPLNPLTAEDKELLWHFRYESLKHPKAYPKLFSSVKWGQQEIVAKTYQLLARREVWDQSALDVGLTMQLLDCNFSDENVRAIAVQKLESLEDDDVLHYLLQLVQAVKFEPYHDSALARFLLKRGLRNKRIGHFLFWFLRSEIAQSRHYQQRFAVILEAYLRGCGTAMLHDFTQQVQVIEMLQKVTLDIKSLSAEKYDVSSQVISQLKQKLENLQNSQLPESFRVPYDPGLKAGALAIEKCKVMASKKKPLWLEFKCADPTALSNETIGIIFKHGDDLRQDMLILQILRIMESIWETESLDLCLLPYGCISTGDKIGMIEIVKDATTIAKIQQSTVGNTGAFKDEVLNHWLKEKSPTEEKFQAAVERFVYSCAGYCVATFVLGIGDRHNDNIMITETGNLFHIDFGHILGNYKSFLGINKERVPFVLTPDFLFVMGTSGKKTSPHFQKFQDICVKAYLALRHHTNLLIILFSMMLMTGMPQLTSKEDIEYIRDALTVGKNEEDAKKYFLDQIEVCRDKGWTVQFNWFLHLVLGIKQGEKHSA
6.09

Find pKd (kinase enzymes (Homo sapiens)) for the entry CC(Nc1ccc(F)c(F)c1)c1cc(C(=O)N2CC[C@@H](O)C2)cc2ncc(N3CCOCC3)nc12 (single isomer, unassigned) [Compound 300a]
5.26

Give pKd (kinase enzymes (Homo sapiens)) of the following molecule: CC(C)NCCNC(=O)c1cc(C(C)Oc2ccc(F)c(F)c2)c2nc(N3CCOCC3)cnc2c1 (single isomer, unassigned) [Compound 286b]
4.79

Give pKd (kinase enzymes (Homo sapiens)) of the following molecule: CC(Nc1ccc(F)c(F)c1)c1cc(C(=O)NCCN(C)C)cc2ncc(N3CCOCC3)nc12 (single isomer, unassigned) [Compound 281b]
5.13

What reported pKd corresponds to CC(C)NCCNC(=O)c1cc(C(C)Nc2cc(F)c(F)c(F)c2)c2nc(N3CCOCC3)cnc2c1 (single isomer, unassigned) [Compound 283b] on kinase enzymes (Homo sapiens)?
4.53

Provide value of pKd for this record tested with kinase enzymes (Homo sapiens): CN[C@H]1CCN(C(=O)c2cc(C(C)Nc3cc(F)c(F)c(F)c3)c3nc(N4CCOCC4)cnc3c2)C1 (single isomer, unassigned) [Compound 297b]
5.83
